target: BCL-XL (Homo sapiens, UniProt Q07817); construct: endogenous in cells; host or cells: MOLT-4; assay: Bcl-xL ELISA degradation in MOLT-4 cells, 6 h; assay type: cell-based
Sequence (Q07817 whole entry): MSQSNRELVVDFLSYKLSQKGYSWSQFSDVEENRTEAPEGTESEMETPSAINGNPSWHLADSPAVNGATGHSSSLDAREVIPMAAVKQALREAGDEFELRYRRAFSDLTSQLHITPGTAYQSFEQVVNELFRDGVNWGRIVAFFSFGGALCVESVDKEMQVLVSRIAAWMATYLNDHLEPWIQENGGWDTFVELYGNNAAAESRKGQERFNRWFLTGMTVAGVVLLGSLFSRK
valueKind: Dmax

# annotated cases, reported Dmax shown
C#Cc1ccc([C@H](C)NC(=O)[C@@H]2C[C@@H](O)CN2C(=O)[C@@H](NC(=O)CCCCS(=O)(=O)NC(=O)c2nc(N(C)c3cc(C)c(Nc4nc5cccnc5s4)nn3)ccc2-c2cnn(CC34CC5CC(CC(C5)C3)C4)c2C)C(C)(C)C)cc1 [I-454] = > 75%
Cc1ncsc1-c1ccc(CNC(=O)[C@@H]2C[C@@H](O)CN2C(=O)[C@@H](NC(=O)C2CCN(c3ccc(S(=O)(=O)NC(=O)c4nc(N5CCc6cccc(C(=O)Nc7nc8ccccc8s7)c6C5)ccc4-c4cnn(CC5CCCCC5)c4C)cc3F)CC2)C(C)(C)C)cc1 [I-329] = > 75%
Cc1ncsc1-c1ccc([C@H](C)NC(=O)[C@@H]2C[C@@H](O)CN2C(=O)[C@@H](NC(=O)[C@H]2CC[C@H](c3nc(C4CCCN(C(=O)c5nc(N6CCc7cccc(C(=O)Nc8nc9ccccc9s8)c7C6)ccc5-c5cnn(CC6CCCCC6)c5C)C4)no3)CC2)C(C)(C)C)cc1 (stereo partly shown) [I-301] = 50 to 75%

Entry Cc1ncsc1-c1ccc([C@H](C)NC(=O)[C@@H]2C[C@@H](O)CN2C(=O)[C@@H](NC(=O)Cc2ccc(S(=O)(=O)NC(=O)c3nc(N4CCc5cccc(C(=O)Nc6nc7ccccc7s6)c5C4)ccc3-c3cnn(CC4CCCCC4)c3C)cc2)C(C)(C)C)cc1 [I-287] has what Dmax?
> 75%
